# method_summary: Half life in Sprague-Dawley rat at 5 mg/kg, iv
# Type: ADME, organism-based
# Parameters: dose 5 mg/kg, route intravenous
# test_settings: in vivo
Recorded measurements of half-life, one per entry
Report the figure in min without appending any unit label.

# smiles_string, value_reported
rows = [
    ("COC(=O)N[C@H](C(=O)N[C@H](Cc1ccc(-c2ccccn2)cc1)C[C@H](O)[C@H](Cc1ccccc1)NC(=O)[C@@H](N1CCN(Cc2csc(C)n2)C1=O)C(C)(C)C)C(C)(C)C", 24),
]

## Task Report half-life for COC(=O)N[C@H](C(=O)N[C@@H](Cc1ccc(-c2ccccn2)cc1)C[C@H](O)[C@H](Cc1ccccc1)NC(=O)[C@@H](N1CCN(Cc2ccccc2)C1=O)C(C)(C)C)C(C)(C)C please.
## Result 60

## Task Would you mind doing COC(=O)N[C@H](C(=O)N[C@H](Cc1ccc(-c2ccccn2)cc1)C[C@H](O)[C@H](Cc1ccccc1)NC(=O)[C@@H](N1CCN(Cc2ccnc3ccccc23)C1=O)C(C)(C)C)C(C)(C)C as well?
## Result 36

## Task Would you mind doing COC(=O)N[C@H](C(=O)N[C@@H](Cc1ccc(-c2ccccn2)cc1)C[C@H](O)[C@H](Cc1ccccc1)NC(=O)[C@@H](N1CCN(Cc2csc(-c3cccnc3)n2)C1=O)C(C)(C)C)C(C)(C)C as well?
## Result 42

## Task Would you mind doing COC(=O)N[C@H](C(=O)N[C@@H](Cc1ccc(-c2ccccn2)cc1)C[C@H](O)[C@H](Cc1ccccc1)NC(=O)[C@@H](N1CCN(Cc2ccnc3ccccc23)C1=O)C(C)(C)C)C(C)(C)C as well?
## Result 66

## Task Would you mind doing COC(=O)N[C@H](C(=O)N[C@@H](Cc1ccc(-c2ccccn2)cc1)C[C@H](O)[C@H](Cc1ccccc1)NC(=O)[C@@H](N1CCN(Cc2cccc(C)c2)C1=O)C(C)(C)C)C(C)(C)C as well?
## Result 84
